B1: LOXL2 (parent)
chain: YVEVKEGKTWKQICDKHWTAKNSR

Variants of: B1
Assay: protein stability index of a GFP-peptide fusion (GPS, HEK-293T) (PSI 1-6); higher = more stable;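 also: lentivirally expressed fusions sorted by FACS into six bins by GFP to DsRed ratio, PSI derived from sequencing read proportions per bin multiplied by bin number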
Conditions: c terminus: a fixed tail appended
measure name: protein stability index
The response must contain the number and no unit.

YVEVKEGKTWKQICDFHWTAKNSR [K16F] | 2.02
YVEVKKGKTWKQICDKHWTAKNSR [E6K] | 2.89
YVEVKEGKTWKQICDWHWTAKNSR [K16W] | 2.44
YVEVKIGKTWKQICDKHWTAKNSR [E6I] | 1.47
YVEVKEGKTWKQICGKHWTAKNSR [D15G] | 2.64
YVEVKEGKTWKFICDKHWTAKNSR [Q12F] | 2.46
YVEVKEGKTWKQICDSHWTAKNSR [K16S] | 3.34
YVEVKEGKTWKQICNKHWTAKNSR [D15N] | 2.27

Exam item: I am curious: what protein stability index value has been reported for YVEVKEGKTWQQICDKHWTAKNSR [K11Q] ?
Marked response: 1.83

Exam item: I am curious: what protein stability index value has been reported for YVEVKEGKTWYQICDKHWTAKNSR [K11Y] ?
Marked response: 4.35

Exam item: I am curious: what protein stability index value has been reported for YVEVKEGKTWIQICDKHWTAKNSR [K11I] ?
Marked response: 2.23

Exam item: I am curious: what protein stability index value has been reported for YVEVKEGKTWKQICDYHWTAKNSR [K16Y] ?
Marked response: 2.82

Exam item: I am curious: what protein stability index value has been reported for YVEVKEGKTWKQICDNHWTAKNSR [K16N] ?
Marked response: 1.93

Exam item: I am curious: what protein stability index value has been reported for YVEVKEGKTWKQICDKHWTAKWSR [N22W] ?
Marked response: 3.39

Exam item: I am curious: what protein stability index value has been reported for YVEVKEGKTWKQICDKHWTAMNSR [K21M] ?
Marked response: 2.13

Exam item: I am curious: what protein stability index value has been reported for YVEVKEGKTWKQICLKHWTAKNSR [D15L] ?
Marked response: 2.62

Exam item: I am curious: what protein stability index value has been reported for YVEVKEGLTWKQICDKHWTAKNSR [K8L] ?
Marked response: 2.01

Exam item: I am curious: what protein stability index value has been reported for YVEVKENKTWKQICDKHWTAKNSR [G7N] ?
Marked response: 2.64

Exam item: I am curious: what protein stability index value has been reported for IVEVKEGKTWKQICDKHWTAKNSR [Y1I] ?
Marked response: 2.68

Exam item: I am curious: what protein stability index value has been reported for YNEVKEGKTWKQICDKHWTAKNSR [V2N] ?
Marked response: 3.69

Exam item: I am curious: what protein stability index value has been reported for RVEVKEGKTWKQICDKHWTAKNSR [Y1R] ?
Marked response: 3.12

Exam item: I am curious: what protein stability index value has been reported for YVEVGEGKTWKQICDKHWTAKNSR [K5G] ?
Marked response: 2.46
